Biological target: T1, human TMEM106B (human, UniProt Q9NUM4 2-274)
T1 construct: full-length, transiently expressed on HEK293 cells, or natively expressed on HeLa, U251 and A549 cells (the cell is named under assay); also the source of the Pepscan peptides; also called huTMEM106B; huTMEM
Assay: FACS A549 1 ug/ml
For each entry below, report its MFI value.
Numbers only, in MFI.

TM-2 (antibody, V domains shown) VH: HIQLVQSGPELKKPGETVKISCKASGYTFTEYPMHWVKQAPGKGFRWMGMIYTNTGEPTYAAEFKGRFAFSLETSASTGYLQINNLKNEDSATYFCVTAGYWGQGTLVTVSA VL: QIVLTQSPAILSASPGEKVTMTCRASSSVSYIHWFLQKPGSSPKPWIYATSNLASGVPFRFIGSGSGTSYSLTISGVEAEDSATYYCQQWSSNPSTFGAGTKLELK ... 1090
TM-18 (antibody, V domains shown) VH: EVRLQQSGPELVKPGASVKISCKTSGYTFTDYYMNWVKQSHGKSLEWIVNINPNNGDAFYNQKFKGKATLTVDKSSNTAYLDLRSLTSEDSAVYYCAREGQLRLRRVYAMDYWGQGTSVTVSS VL: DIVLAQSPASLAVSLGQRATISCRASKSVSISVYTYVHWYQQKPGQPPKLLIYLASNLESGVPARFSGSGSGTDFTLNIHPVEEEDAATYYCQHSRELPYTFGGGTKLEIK ... 2620

Now look at this entry.
Please give measured MFI of the following entry: TM-14 (antibody, V domains shown, mouse IgG (hybridoma)) VH: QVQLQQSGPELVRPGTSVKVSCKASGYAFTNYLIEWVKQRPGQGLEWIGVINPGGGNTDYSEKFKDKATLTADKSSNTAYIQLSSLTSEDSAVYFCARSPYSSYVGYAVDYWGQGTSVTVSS VL: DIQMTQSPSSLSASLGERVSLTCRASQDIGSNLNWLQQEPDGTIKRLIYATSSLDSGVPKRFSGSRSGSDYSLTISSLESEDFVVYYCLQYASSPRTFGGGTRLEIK 409
